tested on: MOLT-4 leukemia; experiment: NCI tumour cell line growth inhibition, 48 h
Where a SMILES comes first, the peptide text is derived from it.
Measure name: TGI (µM)

INSERT INTO measurements (compound, measured_on, lt_gt_eq, result_number) VALUES
  ('COc1cc([C@@H]2c3cc4c(cc3[C@@H](OC3OC5COC(C)OC5C(OC(=O)CN5CCN(C)CC5)C3OC(=O)CN3CCN(C)CC3)C3COC(=O)[C@@H]32)OCO4)cc(OC)c1OC(=O)CN1CCN(C)CC1 (stereo partly specified)', 'MOLT-4 leukemia', '=', 42.1),
  ('CNC(=O)CNC(=O)C(NC(=O)CNC(=O)C1CCCN1C(=O)C(C)NC(=O)C(NC(C)=O)C(C)C)C(C)C (stereo unspecified) (Ac-VAPGVG-NHMe; configuration not given here)', 'MOLT-4 leukemia', '>', 100),
  ('C(=NCCCN1CCN(CCCN=Cc2cccc3ccccc23)CC1)c1cccc2ccccc12', 'MOLT-4 leukemia', '>', 100),
  ('CC1=NN(c2cccc(Cl)c2)C(=N/c2nc3ccccc3s2)/C1=C\c1cccs1', 'MOLT-4 leukemia', '=', 95.2),
  ('N#C/C(=C1C=C/C(=N\O)C(Cl)=C\1)c1ccccc1', 'MOLT-4 leukemia', '=', 9.02),
  ('CC(C)(O)CO/N=C1\C(c2c(O)[nH]c3ccccc23)=Nc2ccccc21', 'MOLT-4 leukemia', '>', 43.1);

---

test system: NCI-H460 lung
Labels: YES = active, NO = inactive

INSERT INTO results (compound, cat) VALUES
  ('O=C(NCCNc1nccc(-c2c(-c3ccc(F)cc3)nc3sccn23)n1)c1ccccc1', 'NO'),
  ('COc1ccc(OC)c(/C=C2\COc3ccc(O)c(O)c3C2=O)c1', 'NO'),
  ('CCC[CH2][Sn]1([CH2]CCC)[O]CC(CN2CCOCC2)[O]1 (centres undefined)', 'NO'),
  ('CC(C)n1c(=O)n(C)c2cnc3cc(F)c(-c4ccc(OCCCN5CCCCC5)nc4)cc3c21', 'NO'),
  ('Cn1ccnc1C(=O)/C=C/c1ccc(CC(=O)Nc2ccc(F)cc2)cc1', 'NO'),
  ('NC1=CC(=O)c2nc3ccccc3c3ccnc1c23', 'YES'),
  ('C=Cc1cc(OC)c2c(c1)c(=O)oc1c2cc(OC)c2c(O)ccc(C3OC(C)C(O)C(C)(O)C3O)c21 (centres undefined)', 'YES'),
  ('Cc1cc(C)c2nc3nc(C)cc(C)c3c(N)c2c1', 'NO'),
  ('C=CC[C@@H]1/C=C(\C)C[C@H](C)C[C@H](OC)[C@H]2O[C@@](O)(C(=O)C(=O)N3CCCC[C@H]3C(=O)O[C@H](/C(C)=C/C3CC[C@@H](O)[C@H](OC)C3)[C@H](C)[C@@H](O)CC1=O)[C@H](C)C[C@@H]2OC (some centres undefined)', 'NO');

---

tested on: COLO 205 colon; test: NCI tumour cell line growth inhibition, 48 h
Measure name: TGI (µM)

INSERT INTO results (molecule, measure_name, unit_symbol, lt_gt_eq, result_number) VALUES
  ('CC(=O)c1ccc(NC(=O)C(=O)C(C(=O)c2ccc(Cl)c(Cl)c2)C2OC(=O)c3ccccc32)cc1 (centres undefined)', 'TGI', 'µM', '=', 28.8),
  ('O=C(CN1C(=O)S/C(=C\C(Cl)=C\c2ccccc2)C1=O)NCCc1ccc(O)cc1', 'TGI', 'µM', '=', 5.68),
  ('Cc1coc2c1C(=O)C(=O)c1c-2ccc2c1CCCC2(C)C', 'TGI', 'µM', '=', 22.5),
  ('Cc1ccc2c(c1)C(C1Cc3cccc(C)c3C1=O)OC2=O (centres undefined)', 'TGI', 'µM', '>', 100),
  ('Cc1ccc(-c2nc(N)c(C#N)c3c2CCOc2c-3ccc3ccccc23)cc1', 'TGI', 'µM', '>', 100),
  ('O=C1OC(c2ccccc2)=N/C1=C\c1cc(Cl)ccc1Cl', 'TGI', 'µM', '>', 100),
  ('CC(C)(O)CO/N=C1\C(c2c(O)[nH]c3ccccc23)=Nc2ccccc21', 'TGI', 'µM', '=', 2.29),
  ('COc1ccc(-c2nn(-c3cccc(NC(=O)c4cccc(C(F)(F)F)c4)c3)cc2-c2ccncc2)cc1Cl', 'TGI', 'µM', '=', 3.53),
  ('O=C(Cc1ccccc1)NC(c1ccc(Cl)cc1)c1c(O)ccc2ccccc12 (centres undefined)', 'TGI', 'µM', '=', 3.48);

Reference for the values: PubChem BioAssay (NCI)
